pIC50: −log10 of the molar value.
Below: molecules with pIC50 recorded for Dual specificity protein kinase CLK4 (Homo sapiens, UniProt Q9HAZ1) in separate published works.

For FC1(F)CCN(Cc2cncc(-c3ccc4[nH]nc(-c5nc(-c6ccco6)c(-c6ccco6)[nH]5)c4c3)c2)C1 , what is its reported pIC50?
8.14

Please do the same for COc1cc(Nc2nc(C)cc(-c3cnn4nc(OC)ccc34)n2)cc(C(F)(F)F)c1 as well.
< 5.00

Please do the same for CC(C)NC(=O)c1ccc(Nc2ncc(F)c(-c3ccc4nc(N5CCCC5)ncc4c3)n2)cc1 as well.
< 5.00
